target: plasma purified human complement protein C3 (human) (UniProt P01024); assay: cell-based or functional assay
Sequence (P01024 23-667, chain 1 of 2): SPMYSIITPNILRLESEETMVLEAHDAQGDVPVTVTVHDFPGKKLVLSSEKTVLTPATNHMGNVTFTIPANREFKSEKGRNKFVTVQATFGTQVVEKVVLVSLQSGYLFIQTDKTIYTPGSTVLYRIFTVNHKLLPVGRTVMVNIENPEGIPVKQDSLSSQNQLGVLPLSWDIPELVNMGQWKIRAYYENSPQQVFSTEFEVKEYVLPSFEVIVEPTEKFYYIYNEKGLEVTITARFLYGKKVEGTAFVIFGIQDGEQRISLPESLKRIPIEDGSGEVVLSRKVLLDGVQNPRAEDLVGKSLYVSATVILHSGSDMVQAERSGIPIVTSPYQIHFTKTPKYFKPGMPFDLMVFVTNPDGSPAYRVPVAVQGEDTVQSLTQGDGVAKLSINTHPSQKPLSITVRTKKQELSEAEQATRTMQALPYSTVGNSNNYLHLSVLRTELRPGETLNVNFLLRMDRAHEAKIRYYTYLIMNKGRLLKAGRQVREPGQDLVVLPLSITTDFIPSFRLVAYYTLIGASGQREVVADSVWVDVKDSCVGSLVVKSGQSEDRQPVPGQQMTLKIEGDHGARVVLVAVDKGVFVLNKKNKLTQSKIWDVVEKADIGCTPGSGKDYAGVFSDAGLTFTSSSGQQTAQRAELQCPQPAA
Sequence (P01024 672-1663, chain 2 of 2): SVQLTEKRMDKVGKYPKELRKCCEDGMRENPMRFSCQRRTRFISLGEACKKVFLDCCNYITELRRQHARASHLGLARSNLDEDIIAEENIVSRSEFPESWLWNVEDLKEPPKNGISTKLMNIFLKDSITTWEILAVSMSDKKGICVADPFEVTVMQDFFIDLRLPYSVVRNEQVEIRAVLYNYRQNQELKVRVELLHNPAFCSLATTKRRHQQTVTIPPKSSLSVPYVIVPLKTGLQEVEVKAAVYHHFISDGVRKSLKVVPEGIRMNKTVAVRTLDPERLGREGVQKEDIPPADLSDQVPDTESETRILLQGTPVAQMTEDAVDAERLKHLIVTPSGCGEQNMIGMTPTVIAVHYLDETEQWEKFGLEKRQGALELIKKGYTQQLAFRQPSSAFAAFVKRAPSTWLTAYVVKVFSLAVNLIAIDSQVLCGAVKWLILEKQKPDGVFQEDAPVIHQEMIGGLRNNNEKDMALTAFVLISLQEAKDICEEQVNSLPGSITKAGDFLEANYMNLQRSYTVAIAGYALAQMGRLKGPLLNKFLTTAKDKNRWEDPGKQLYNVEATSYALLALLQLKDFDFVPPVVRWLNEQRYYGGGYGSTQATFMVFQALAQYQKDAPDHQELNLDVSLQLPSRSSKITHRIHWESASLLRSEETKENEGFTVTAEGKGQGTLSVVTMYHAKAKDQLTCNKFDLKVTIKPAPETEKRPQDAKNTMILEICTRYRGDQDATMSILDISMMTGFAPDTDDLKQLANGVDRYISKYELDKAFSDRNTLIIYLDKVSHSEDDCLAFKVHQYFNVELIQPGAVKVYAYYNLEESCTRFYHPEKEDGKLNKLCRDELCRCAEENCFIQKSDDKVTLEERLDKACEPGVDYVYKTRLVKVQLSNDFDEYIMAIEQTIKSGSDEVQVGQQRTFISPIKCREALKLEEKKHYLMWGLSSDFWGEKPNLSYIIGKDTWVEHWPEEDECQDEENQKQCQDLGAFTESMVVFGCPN
Quick reference: log10 EC50 hC3 cleavage of the listed items.
Please keep in mind that the values are log10 of EC50 hC3 cleavage expressed in nM.

Examples with their reported log10 EC50 hC3 cleavage follow.
MTSP-1 protease domain I41D/F99L/C122S/G151N (enzyme) VVGGTDADEGEWPWQVSLHALGQGHDCGASLISPNWLVSAAHCYIDDRGFRYSDPTQWTAFLGLHDQSQRSAPGVQERRLKRIISHPFFNDFTLDYDIALLELEKPAEYSSMVRPISLPDASHVFPAGKAIWVTGWGHTQYGGTNALILQKGEIRVINQTTCENLLPQQITPRMMCVGFLSGGVDSCQGDSGGPLSSVEADGRIFQAGVVSWGDGCAQRNKPGVYTRLPLFRDWIKENTGV = 1.23
MTSP-1 protease domain A35V/I41S/Y59F/C122S/Q192D/D217V (enzyme) VVGGTDADEGEWPWQVSLHVLGQGHSCGASLISPNWLVSAAHCFIDDRGFRYSDPTQWTAFLGLHDQSQRSAPGVQERRLKRIISHPFFNDFTFDYDIALLELEKPAEYSSMVRPISLPDASHVFPAGKAIWVTGWGHTQYGGTGALILQKGEIRVINQTTCENLLPQQITPRMMCVGFLSGGVDSCDGDSGGPLSSVEADGRIFQAGVVSWGVGCAQRNKPGVYTRLPLFRDWIKENTGV = 1.60
MTSP-1 protease domain Q38H/I41S/D96Q/ins97aA/C122S/Q192T (enzyme) VVGGTDADEGEWPWQVSLHALGHGHSCGASLISPNWLVSAAHCYIDDRGFRYSDPTQWTAFLGLHDQSQRSAPGVQERRLKRIISHPFFNQFATFDYDIALLELEKPAEYSSMVRPISLPDASHVFPAGKAIWVTGWGHTQYGGTGALILQKGEIRVINQTTCENLLPQQITPRMMCVGFLSGGVDSCTGDSGGPLSSVEADGRIFQAGVVSWGDGCAQRNKPGVYTRLPLFRDWIKENTGV = 1.01
MTSP-1 protease domain Y59F/C122S/G151N/Q192T (enzyme) VVGGTDADEGEWPWQVSLHALGQGHICGASLISPNWLVSAAHCFIDDRGFRYSDPTQWTAFLGLHDQSQRSAPGVQERRLKRIISHPFFNDFTFDYDIALLELEKPAEYSSMVRPISLPDASHVFPAGKAIWVTGWGHTQYGGTNALILQKGEIRVINQTTCENLLPQQITPRMMCVGFLSGGVDSCTGDSGGPLSSVEADGRIFQAGVVSWGDGCAQRNKPGVYTRLPLFRDWIKENTGV = 2.46

Next, consider the following binder.
Recorded result, MTSP-1 protease domain I41G/F97S/F99L/C122S/G151N/Q175I/D217T (enzyme) VVGGTDADEGEWPWQVSLHALGQGHGCGASLISPNWLVSAAHCYIDDRGFRYSDPTQWTAFLGLHDQSQRSAPGVQERRLKRIISHPFFNDSTLDYDIALLELEKPAEYSSMVRPISLPDASHVFPAGKAIWVTGWGHTQYGGTNALILQKGEIRVINQTTCENLLPQIITPRMMCVGFLSGGVDSCQGDSGGPLSSVEADGRIFQAGVVSWGTGCAQRNKPGVYTRLPLFRDWIKENTGV , log10 EC50 hC3 cleavage: 2.03

These entries and their values trace back to patent US20240018502A1.
